tested on: MOLT-4 leukemia; assay: NCI tumour cell line growth inhibition, 48 h; in the data active = GI50 below about 0.43 µM; inactive = the rest
Possible outcomes: class 1 (active), class 0 (inactive)

compound | class
Clc1ccc(-c2nc(C(Cl)Cl)nc3cc(-c4ccccc4)nn23)cc1 | class 0
C=C1C(=O)OC2/C=C(\C)CC/C=C(\C)CC(OC(=O)/C(=C/CO)CO)[C@@H]12 (stereo partly specified) | class 0
CCOc1ccc(NC(=O)c2cc3ccccc3cc2O)cc1 | class 0
CNC1=CC(=O)C2=C(C1=O)C1C3=C(C(=O)C(Br)=C(OC)C3=O)C2c2ccccc21 (stereo unspecified) | class 0
Clc1ccc(N/N=C(\c2ccccc2)c2ccccn2)nc1 | class 1
CSC(=NC#N)S/C=C/C(=O)c1cccc2ccccc12 | class 0
CNC12C3C4C1C1C2C3C41C(=O)N[C@H](C(=O)N(C)[C@H](C[C@@H](OC(C)=O)c1nc(C(=O)N[C@@H](Cc2ccccc2)C[C@H](C)C(=O)OC)cs1)C(C)C)C1CC1 (stereo partly specified) | class 0
O=C([CH-]C(=O)c1ccccc1)c1ccccc1.[CH3-].[CH3-].[CH3-].[Sn+4] | class 0
CCOC(=O)Nc1ccc(C(=O)/C=C/c2ccccc2)cc1 | class 0
O=C(Nc1nc(-c2ccccc2)cs1)c1cc(O)c(O)c(O)c1 | class 0
CC(C)c1ccc(/C=N/N=C(N)N)cc1 | class 0
C=C1[C@@H](O)C[C@H]2C(C)(C)C[C@H](Cl)C[C@]2(C)[C@H]1C[C@H](O)[C@H]1CC(=O)NC1=O | class 1
COc1cc2oc(-c3cccc(C(=O)Nc4ccc(C)cc4)c3)cc(=O)c2c(OC)c1OC | class 0
O=C(Nc1cc(C(F)(F)F)cc(C(F)(F)F)c1)Nc1ccc(OCc2nnc(-c3ccc(Cl)cc3)o2)c(F)c1 | class 0
Cc1cc(S(=O)(=O)Nc2nc3ccccc3[nH]2)c(SCc2ccccc2)cc1Cl | class 0
Cc1ccc(NC(=O)N2CCCCC2)cc1[N+](=O)[O-] | class 0

---

system: HL-60(TB) leukemia; assay: NCI tumour cell line growth inhibition, 48 h
quantity_kind: TGI

molecule | recorded_value
O=c1[nH]cc(COCC(O)CO)c(=O)[nH]1 (centres undefined) | > 100 µM
CCOC(=O)Nc1ccc(C(=O)/C=C/c2ccccc2)cc1 | > 100 µM
O=S1(=O)c2ccccc2-c2nccc3ccnc1c23 | > 100 µM
[O-]/[N+](=N/c1ncc(-c2ccccc2)cn1)c1ncc(-c2ccccc2)cn1 | > 100 µM
CCOC(=O)N1CCc2cc(OC)c(OC)cc2/C1=C/c1ccc(OC)c(OC)c1 | 65.1 µM
COc1ccc(C(=O)C/C(=N/NC(N)=S)C(=O)Nc2ccccc2)cc1 | > 100 µM
COc1cc(OC)c2nc(C)c3c(c2c1)OCC3 | > 100 µM
C=CC[C@@]12CCC(=O)C=C1CCCC2=O | > 100 µM
O=C(O)c1cc2cc(O)ccc2[nH]1 | > 100 µM
N#CCN1CCN(CC#N)CCN(CC#N)CCN(CC#N)CC1 | > 100 µM
O=C1c2ccccc2C(=O)c2sc(Nc3ccc(Cl)cc3)nc21 | 1.05 µM
COc1cc(/C=C2\CC(C)C/C(=C\c3ccc(O)c(OC)c3)C2=O)ccc1O (centres undefined) | > 30.6 µM
Cc1ccc(/C=C2\CCCCCC2=O)cc1 | > 100 µM
Cc1ccc(NC(=O)N2CCCCC2)cc1[N+](=O)[O-] | > 100 µM
CC(C)C[C@H]1C(=O)N2CCC[C@H]2[C@]2(O)O[C@](NC(=O)[C@@H]3C=C4c5cccc6[nH]c(Br)c(c56)C[C@H]4N(C)C3)(C(C)C)C(=O)N12 | 28.1 µM
COC1=CC(=O)c2c(n[nH]c2CCNC(=O)OCc2ccccc2)C1=O | 41.9 µM
CCOC(=O)C1=C(c2ccccc2)NC(c2ccccc2)=C(C(=O)OCC)c2c1c(=O)cc[nH]c2=O | > 100 µM
CCOc1ccc(N=Nc2ccc(-c3ccc(N=Nc4c(O)ccc5cc(S(=O)(=O)O)cc(S(=O)(=O)O)c45)cc3)cc2)cc1 | > 100 µM
Oc1ccccc1-c1n[nH]c(-c2ccccc2O)n1 | > 23.7 µM
C/C(CC(=O)Nc1ccccc1)=N\NC(N)=S | > 100 µM
CNC12C3C4C1C1C2C3C41C(=O)N[C@H](C(=O)N(C)[C@H](C[C@@H](OC(C)=O)c1nc(C(=O)N[C@@H](Cc2ccccc2)C[C@H](C)C(=O)OC)cs1)C(C)C)C1CC1 (some centres undefined) | 0.135 µM
COC(=O)c1ccc(NC(N)=NCC(C)(C)COc2ccc(C(F)(F)F)cc2)nc1 | 3.56 µM
CC(=O)Oc1cc(/C=C/c2ccc(O)cc2)cc(OC(C)=O)c1 | > 100 µM
OCC#CCCCCOCC#Cc1ccccc1C#CCOCCCCC#CCO | > 100 µM

---

system: SN12C renal; assay: NCI tumour cell line growth inhibition, 48 h
Below, each entry is listed alongside its reported TGI.
quantity_kind: TGI

molecule | quantity_kind | recorded_value
O=C1[C@@H]2C(c3ccncc3)=NO[C@@H]2C(=O)N1c1ccc(Cc2ccc(N3C(=O)[C@H]4C(c5ccncc5)=NO[C@H]4C3=O)cc2)cc1 | TGI | > 100 µM
Cc1ncc([N+](=O)[O-])n1CCNC(=O)Cn1ccnc1[N+](=O)[O-] | TGI | > 100 µM
CCOC(=O)CON=c1c2ccccc2ccc2ccccc12 | TGI | > 100 µM
CC(C)(C)OC(=O)NC(Cc1ccc(OCc2ccccc2)cn1)C(N)=O (stereo unspecified) | TGI | > 100 µM
OCC#CCCCCOCC#Cc1ccccc1C#CCOCCCCC#CCO | TGI | 39 µM
N/N=C(/CC(O)(C(F)(F)F)C(F)(F)F)c1ccccc1 | TGI | > 10 µM
CN(C)CCN=C1Nc2ccccc2C(=O)N2CSCC12 (stereo unspecified) | TGI | > 100 µM
COc1cc(OC)c2nc(C)c3c(c2c1)OCC3 | TGI | > 100 µM
COc1ccccc1Nc1nc2ccccc2c2occc12 | TGI | 33.8 µM
O=S1(=O)c2ccccc2-c2nccc3ccnc1c23 | TGI | 94.1 µM
NCCn1cnc2nc(NC(=O)c3ccccc3)[nH]c(=O)c21 | TGI | > 100 µM
Nc1ncc(N)c(NCC2(CO)CC(CCc3ccccc3)C2)n1 (stereo unspecified) | TGI | 24.9 µM
CC1(Cc2cc3c(cc2C2(c4ccc([N+](=O)[O-])cc4)OCCO2)OCO3)OCCO1 | TGI | > 100 µM
C=CC[C@@]12CCC(=O)C=C1CCCC2=O | TGI | > 100 µM
COc1ccc(C(=O)C/C(=N/NC(N)=S)C(=O)Nc2ccccc2)cc1 | TGI | > 100 µM
O=c1cc(-c2ccc3ccccc3c2)[nH]c2ncccc12 | TGI | > 100 µM
[O-]/[N+](=N/c1ncc(-c2ccccc2)cn1)c1ncc(-c2ccccc2)cn1 | TGI | > 100 µM
COc1cc2c(c(OC)c1OC)C(=O)c1c-2n(CCCN=[N+]=[N-])c(=O)c2cc([N+](=O)[O-])ccc12 | TGI | > 100 µM
O=C1Nc2ccccc2/C1=N/N1C(=O)/C(=C/c2ccccc2S)N=C1c1ccccc1 | TGI | > 100 µM
CC[C@H]1C=CCC[C@@]2(C[C@@H]3CC[C@H]4[C@@H](C(=O)OCCCCCCCCCCCCCCCC(=O)N(CCCNC(C)=O)C[C@H](CCNC(C)=O)OC(C)=O)[C@@]5(CCC[C@@H](C)O5)NC(=[N+]34)N2)O1 | TGI | 3.54 µM
C=C(C[C@@H](O)[C@H](C)NC(=O)OCc1ccccc1)C(=O)OC(C)(C)C | TGI | > 100 µM

---

The molecules listed here are annotated with their TGI.
system: SK-MEL-2 melanoma; assay: NCI tumour cell line growth inhibition, 48 h

smiles_entry | TGI
O=C1COc2cc3c(cc2N1)SCCC(=O)N3 | > 100 µM
Nc1cc(N)cc(Cc2ccccc2)c1 | > 100 µM
CNC(=O)/C(=C/c1ccc(OC)cc1)c1cc(OC)c(OC)c(OC)c1 | > 100 µM
CC(=O)Oc1ccccc1C(=O)NCCC[Se]C#N | 5.64 µM
C[C@@H]1CC[C@@H]2[C@@H]1[C@H](OC(=O)c1ccc3ccccc3c1)[C@]1(C3CCCCC3)C[C@@H](OC(=O)CO)[C@@]2(C)O1 | 30.8 µM
O=c1[nH]c2cc3[nH]c(=O)c(=O)[nH]c3cc2[nH]c1=O | > 100 µM

---

test system: COLO 205 colon; assay: NCI tumour cell line growth inhibition, 48 h
quantity_kind: TGI (µM)

molecule | measurement_unit | prefix_operator | recorded_value
C=C(CN(C)Cc1ccccc1)c1ccc(C(=O)Nc2ccccc2N)cc1 | µM | = | 17.6
CC(=O)c1c(C)cc2cccc(OC3OC(CO)C(O)C(O)C3O)c2c1O (stereo not given) (tested in a mixture with another compound) | µM | > | 100
O=C(c1ccc(Cl)c(Cl)c1)N(C(=O)N1CCN(c2ccccc2)CC1)S(=O)(=O)c1ccccc1 | µM | > | 100
O=C1O/C(=C(/Cl)c2c3ccccc3cc3ccccc23)c2ccccc21 | µM | = | 49.2
Cc1c(-c2ccccc2)c(C#N)c2nnn(C)c(=O)n12 | µM | > | 100
O=C(/C=C/c1ccccc1Br)c1ccccc1 | µM | = | 28.6
CN(C(=O)c1cc2c(s1)sc1c(=O)n(C)c3ccccc3c12)c1ccccc1 | µM | > | 100
CN(C)CCC(/C=C/c1ccccc1)=N\Nc1ccc(Cl)cc1 | µM | = | 16.5
Cc1[nH]c(=O)nc(N/N=C/c2ccc(Cl)cc2)c1C(=O)Nc1ccc(Cl)cc1 | µM | > | 88.1
CC(C)c1ccc(/C=N/N=C(N)N)cc1 | µM | = | 3.33
